Data origin: ChEMBL document CHEMBL1147331

- method-notes: Cytotoxicity against human Col1 cells after 3 days by sulforhodamine B assay
- Assay type: cell-based
- cond: read-out: ED50
Below, each of the molecules is paired with its reported CC50 at 72 h value.
The figure you give is taken to be in µg/mL; do not add the unit.

- COc1ccc2cc1Oc1ccc(cc1)C[C@H]1c3c(cc(OC)c(O)c3Oc3cc4c(cc3OC)CCN[C@@H]4C2)CCN1C: 10.3

Enquiry: Returns the measured CC50 at 72 h for the input molecule. Input: COc1ccc2cc1Oc1ccc(cc1)C[C@H]1c3cc(c(OC)cc3CCN1C)Oc1c(O)c(OC)cc3c1[C@@H](C2)N(C)CC3
Return: 11.1

Enquiry: COc1ccc2cc1Oc1ccc(cc1)C[C@H]1c3c(cc(OC)c(OC)c3Oc3cc4c(cc3OC)CCN(C)[C@@H]4C2)CCN1C [OBABERINE] , same question.
Return: 10.8

Enquiry: COc1ccc2cc1Oc1ccc(cc1)C[C@H]1c3c(cc4c(c3Oc3cc5c(cc3OC)CCN[C@@H]5C2)OCO4)CCN1C , same question.
Return: 3.1

Enquiry: COc1ccc2cc1Oc1ccc(cc1)C[C@H]1c3cc(c(OC)cc3CCN1C)Oc1c(OC)c(OC)cc3c1[C@@H](C2)N(C)CC3 , same question.
Return: 10.5

Enquiry: COc1ccc2cc1Oc1ccc(cc1)C[C@H]1c3c(cc(OC)c(O)c3Oc3cc4c(cc3OC)CCN(C)[C@@H]4C2)CCN1C [HOMOAROMOLINE] , same question.
Return: 10

Enquiry: COc1ccc2cc1Oc1ccc(cc1)C[C@H]1c3c(cc(OC)c(OC)c3Oc3cc4c(cc3OC)CCN[C@@H]4C2)CCN1C , same question.
Return: 5.5

Enquiry: COc1ccc2cc1Oc1ccc(cc1)C[C@H]1c3c(cc(O)c(OC)c3Oc3cc4c(cc3OC)CCN(C)[C@@H]4C2)CCN1C , same question.
Return: 7.5

###

- method-notes: Selectivity index, ratio of ED50 for human BCA1 cells to ED50 for chloroquine-sensitive Plasmodium falciparum D6
- Type: toxicity, cell-based
- cond: read-out: Ratio ED50
Below, each of the molecules is paired with its reported selectivity ratio value.
Could you keep your reply to the number by itself?

Answered examples (2):
• COc1ccc2cc1Oc1ccc(cc1)C[C@H]1c3c(cc(OC)c4c3Oc3cc5c(cc3O4)CCN=C5C2)CCN1C = 15
• COc1ccc2cc1Oc1ccc(cc1)C[C@H]1c3cc(c(OC)cc3CCN1C)Oc1c(O)c(OC)cc3c1[C@@H](C2)NCC3 = 60

Enquiry: Returns the measured selectivity ratio for the input molecule. Input: COc1ccc2cc1Oc1ccc(cc1)C[C@H]1c3c(cc(OC)c4c3Oc3cc5c(cc3O4)CCN(C)[C@@H]5C2)CCN1C
Return: 24

Enquiry: COc1ccc2cc1Oc1ccc(cc1)C[C@H]1c3c(cc4c(c3Oc3cc5c(cc3OC)CCN(C)[C@@H]5C2)OCO4)CCN1C [CEPHARANTHINE] , same question.
Return: 34

Enquiry: OC(c1cc(C(F)(F)F)nc2c(C(F)(F)F)cccc12)C1CCCCN1 (configuration not stated) [MEFLOQUINE] , same question.
Return: 588

Enquiry: COc1ccc2cc1Oc1ccc(cc1)C[C@H]1c3c(cc(OC)c(O)c3Oc3cc4c(cc3OC)CCN(C)[C@@H]4C2)CCN1C [HOMOAROMOLINE] , same question.
Return: 34
